Provenance of the data: paper PMC2582943

Tested on: SARS-CoV (strain Urbani)
procedure text: microbe, parasite or virus in culture
Assay type: cell-based
Structures can show the parent of a compound that is named as a salt.
readout type: Inhibition of virus replication in vitro (in words)

1. CCC(=O)c1ccc2c(c1)N(CCCN(C)C)c1ccccc1S2 [Propionylpromazine·HCl]	essentially inactive
2. c1ccc2c(c1)Nc1ccccc1O2	essentially inactive
3. OCCCN1c2ccccc2Sc2ccc(Cl)cc21	essentially inactive

====

Some molecules, each annotated with its measured pEC50.
Test system: SARS-CoV (strain Urbani)
procedure text: microbe, parasite or virus in culture
Type: cell-based
condition label: Severe acute respiratory syndrome coronavirus, Vero 76, read-out: Neutral red uptake assay EC50
Formally, pEC50 is defined as -log10 of the concentration c, with c in mol/L.

Sample answers from the record:
1) CN1CCN(CCCN2c3ccccc3Sc3ccc(C(F)(F)F)cc32)CC1 [Trifluoperazine dimaleate]	5.14
2) CN(C)CCCN1c2ccccc2Sc2ccccc21	4.97
3) c1ccc2c(c1)Oc1ccccc1S2	3.12
4) COc1ccc2c(c1)N(C[C@H](C)CN(C)C)c1ccccc1S2	4.72

Next, consider the following molecule.
Ask: Using the record for CN(C)CC/C=C1/c2ccccc2Sc2ccc(Cl)cc21 , state its measured pEC50.
Reply: 5.02
